Entry source: PubChem BioAssay (NCI)

# Lookup of reported GI50 keyed by entry
- Test system: SK-MEL-5 melanoma
- Method: NCI tumour cell line growth inhibition, 48 h

Compound	GI50
C/C(=C(/c1ccc(O)cc1)c1ccc(Cl)cc1)c1ccccc1	0.454 µM
C[PH+](c1nc2ccccc2nc1[PH+](C)C(C)(C)C)C(C)(C)C.C[PH+](c1nc2ccccc2nc1[PH+](C)C(C)(C)C)C(C)(C)C.[Au+].[Cl-] (centres undefined)	0.0329 µM
CC1(C)[C@@H](OC(N)=O)C=C[C@]2(CO)[C@H]3CC[C@]4(C)[C@@H](c5ccc(=O)oc5)[C@@H](Cl)C[C@]4(O)C3=CC[C@@H]12	0.00269 µM
COC(=O)[C@H]1[C@H]2C[C@@H]3c4[nH]c5cc(OC)ccc5c4CCN3C[C@H]2C[C@@H](OC(=O)/C=C/c2cc(OC)c(OC)c(OC)c2)[C@@H]1OC	3.66 µM
